- targetDesc: HLA-A*24 (human)
- procedureText: UV peptide exchange ELISA
Reported peptide exchange yield is given for each of the following binders.

INSERT INTO measurements (binder, endpointname, observed) VALUES
  ('SYIGLPLTL', 'peptide exchange yield', '50 to 75%'),
  ('IYFRDSSFL', 'peptide exchange yield', '> 75%'),
  ('VWSNVTPLKF', 'peptide exchange yield', '> 75%');

For TWFPKTPMLF , what is its reported peptide exchange yield?
> 75%
